Values were extracted from patent US20080181886A1.

A collection of binders and their measured F' APRIL
# assayed target: T1, Murine APRIL (mouse, UniProt Q9D777 105-241, limits assumed)
# T1 sequence (looked up): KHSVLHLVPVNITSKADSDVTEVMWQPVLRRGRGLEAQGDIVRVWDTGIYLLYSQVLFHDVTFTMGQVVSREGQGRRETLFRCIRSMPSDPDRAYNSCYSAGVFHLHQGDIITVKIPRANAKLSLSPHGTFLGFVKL
# measurement protocol: NNS library, phage display;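 also: ligand versus display occurrence-to-degeneracy ratio and higher means enriched by binding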

These solved cases illustrate the format of a correct answer.
{"binder": "SLSCRKEQGKFYDHLLVDCISCASICGQHPKQCAYFCENKLR (receptor, phage library variant, format as m9) [TACI_d2 R84V]", "F' APRIL": 4}
{"binder": "SLSCRKEQGKFYDHLLRDCISCASQCGQHPKQCAYFCENKLR (receptor, phage library variant, format as m9) [TACI_d2 I92Q]", "F' APRIL": 0}
{"binder": "SLSCRKEQGKFSDHLLRDCISCASICGQHPKQCAYFCENKLR (receptor, phage library variant, format as m9) [TACI_d2 Y79S]", "F' APRIL": 0}
{"binder": "SLSCRKEQGKFYDHLLRDCISCASCCGQHPKQCAYFCENKLR (receptor, phage library variant, format as m9) [TACI_d2 I92C]", "F' APRIL": 0}

Just so you know, measured F' APRIL for SLSCRKEQGKFYDHLLRDCISCASWCGQHPKQCAYFCENKLR (receptor, phage library variant, format as m9) [TACI_d2 I92W] came out at 0

Just so you know, measured F' APRIL for SLSCRKEQGKFVDHLLRDCISCASICGQHPKQCAYFCENKLR (receptor, phage library variant, format as m9) [TACI_d2 Y79V] came out at 0

Just so you know, measured F' APRIL for SLSCRKEQGKPYDHLLRDCISCASICGQHPKQCAYFCENKLR (receptor, phage library variant, format as m9) [TACI_d2 F78P] came out at 0

Just so you know, measured F' APRIL for SLSCRKEQGKFEDHLLRDCISCASICGQHPKQCAYFCENKLR (receptor, phage library variant, format as m9) [TACI_d2 Y79E] came out at 8

Just so you know, measured F' APRIL for SLSCRKEQGKFCDHLLRDCISCASICGQHPKQCAYFCENKLR (receptor, phage library variant, format as m9) [TACI_d2 Y79C] came out at 0
